Assay procedure: Solubility of the compound in ethanol solution
Assay type: physicochemical
Value type: solubility

CC(C)OC(=O)c1sc(N(COP(=O)(OC(C)(C)C)OC(C)(C)C)c2ncccn2)nc1-c1cnccn1: Soluble
CC(C)OC(=O)c1sc(N(COP(=O)(OC(C)(C)C)OC(C)(C)C)c2ncccn2)nc1-c1ccccn1: Soluble
CC(C)OC(=O)OCN(c1ncccn1)c1nc(-c2cnccn2)c(C(=O)OC(C)C)s1: Soluble
COCCOCN(c1ncccn1)c1nc(-c2cnccn2)c(C(=O)OC(C)C)s1: Soluble

* * *

Assay procedure: Volume of distribution at steady state in CD-1 mouse at 1 mg/kg, iv
Format: ADME, organism-based
Particulars: in vivo, read-out: Vdss
Value type: Vd (L/kg)
The response must be a number in L/kg with no trailing unit.

Recorded Vd of `CC(C)OC(=O)c1sc(Nc2ncccn2)nc1-c1cnccn1` , please. 3.49

The values you see were collected from ChEMBL document CHEMBL3867464.
